Recorded values, source patent US20150307617A1.

Target: T1, Human OX40 (Sino Biological Inc) (human, UniProt P43489 29-216, limits assumed)
T1 construct: Bought soluble protein used as SPR analyte; also called huOX40
T1 sequence: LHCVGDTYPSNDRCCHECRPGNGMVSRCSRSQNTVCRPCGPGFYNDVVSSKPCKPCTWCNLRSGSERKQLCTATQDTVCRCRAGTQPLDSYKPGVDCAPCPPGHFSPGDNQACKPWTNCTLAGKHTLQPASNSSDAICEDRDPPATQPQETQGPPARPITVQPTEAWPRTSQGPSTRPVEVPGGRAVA
Assay: SPR (Biacore), antibody captured via anti-human Fc, huOX40 analyte
MEASURE: Kd (nM)
Dear colleague, please return just the value in nM, with no unit written.

[
  {
    "BINDER": "1A7.gr.4 (antibody, V domains shown, human Fc) VH: EVQLVQSGAEVKKPGASVKVSCKASGYTFTDSYMSWVRQAPGQGLEWIGDMYPDNGDSSYNQKFRERVTITVDTSTSTAYLELSSLRSEDTAVYYCVLAPRWYFSVWGQGTLVTVSS VL: DIQMTQSPSSLSASVGDRVTITCRASQDISNYLNWYQQKPGKTVKLLIYYTSRLRSGVPSRFSGSGSGTDFTLTISSLQPEDFATYYCQQGHTLPPTFGQGTKVEIK",
    "Kd, nM": 0.472
  }
]

Requested field: Kd. Item: 1D2.gr.3 (antibody, V domains shown, human Fc) VH: EVQLVESGPGLVKPSETLSLTCTVSGFSLTDYGVLWVRQPPGKGLEWLGMIWSGGTTDYNAAFISRLTISKDTSKNQVSLKLSSVTAADTAVYYCVREEMDYWGQGTLVTVSS VL: DIQMTQSPSSLSASVGDRVTITCRASQDISNFLNWYQQKPGKAPKLLIYYTSRLHSGVPSRFSGSGSGTDFTLTISSLQPEDFATYYCQQGNTLPWTFGQGTKVEIK
59.5

Also 3C8.gr.2 (antibody, V domains shown, human Fc) VH: EVQLVQSGAEVKKPGASVKVSCKASGYAFTNYLIEWVRQAPGQGLEWIGVINPGSGDTYYSEKFKGRVTITADTSTSTAYLELSSLRSEDTAVYYCARDRLDYWGQGTLVTVSS VL: DIQMTQSPSSLSASVGDRVTITCHASQDISSYIVWYQQKPGKAPKLLIYHGTNLEDGVPSRFSGSGSGTDFTLTISSLQPEDFATYYCVHYAQFPYTFGQGTKVEIK ?
5.48

Similarly, 1A7.gr.3 (antibody, V domains shown, human Fc) VH: EVQLVQSGAEVKKPGASVKVSCKASGYTFTDSYMSWVRQAPGQGLEWIGDMYPDNGDSSYNQKFRERVTLTVDTSTSTAYLELSSLRSEDTAVYYCVLAPRWYFSVWGQGTLVTVSS VL: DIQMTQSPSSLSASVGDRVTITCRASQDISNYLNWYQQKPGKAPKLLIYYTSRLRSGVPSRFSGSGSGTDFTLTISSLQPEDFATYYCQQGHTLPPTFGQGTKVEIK ?
0.525
